B1: library; a variant is named by its letters at N, in order (parent)
chain: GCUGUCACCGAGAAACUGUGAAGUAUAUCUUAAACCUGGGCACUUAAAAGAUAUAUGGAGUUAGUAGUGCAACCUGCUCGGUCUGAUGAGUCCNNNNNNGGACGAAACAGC

Variants of: B1
MEASUREMENT DESCRIPTION: normalized RNA/DNA level with ligand (relative to sTRSVctl = 100) (log10 (% of sTRSVctl)); HEK293T; ligand: cyclic di-GMP (c-di-GMP-II aptamer); ligand concentration (+) RNA-Seq: 1 mM; higher = less ribozyme self-cleavage, higher mRNA level
RECORDED CONDITIONS: reporter: mCherry (pCS4076), ligand present: yes
READOUT KIND: normalized RNA/DNA level with ligand (log10)

{"MUTANT LABEL": "ACUUUU", "NUMERIC RESULT": 1.8}
{"MUTANT LABEL": "AAAGCU", "NUMERIC RESULT": 1.78}
{"MUTANT LABEL": "UGUUCA", "NUMERIC RESULT": 1.81}
{"MUTANT LABEL": "UAAGCU", "NUMERIC RESULT": 1.83}
{"MUTANT LABEL": "AACUCA", "NUMERIC RESULT": 1.8}
{"MUTANT LABEL": "UAAACG", "NUMERIC RESULT": 1.85}
{"MUTANT LABEL": "UCUCCG", "NUMERIC RESULT": 1.94}
{"MUTANT LABEL": "CUUGUG", "NUMERIC RESULT": 1.91}
{"MUTANT LABEL": "AUACCU", "NUMERIC RESULT": 1.85}
{"MUTANT LABEL": "CGAGAC", "NUMERIC RESULT": 1.77}
{"MUTANT LABEL": "UACCCG", "NUMERIC RESULT": 1.9}
{"MUTANT LABEL": "UUUGCU", "NUMERIC RESULT": 1.88}
{"MUTANT LABEL": "UCCUUC", "NUMERIC RESULT": 1.87}
{"MUTANT LABEL": "GAUUCG", "NUMERIC RESULT": 1.88}
{"MUTANT LABEL": "CGGCUC", "NUMERIC RESULT": 1.85}
{"MUTANT LABEL": "GUUCAC", "NUMERIC RESULT": 1.87}
{"MUTANT LABEL": "UACUGG", "NUMERIC RESULT": 1.85}
{"MUTANT LABEL": "UAUCAC", "NUMERIC RESULT": 1.87}
{"MUTANT LABEL": "ACAGUU", "NUMERIC RESULT": 1.5}
{"MUTANT LABEL": "CCGGGU", "NUMERIC RESULT": 1.81}
{"MUTANT LABEL": "GUGCGG", "NUMERIC RESULT": 1.92}
{"MUTANT LABEL": "AACCUU", "NUMERIC RESULT": 1.82}
{"MUTANT LABEL": "GGGCAG", "NUMERIC RESULT": 1.89}
{"MUTANT LABEL": "UCCUAU", "NUMERIC RESULT": 1.8}
{"MUTANT LABEL": "AGCGCG", "NUMERIC RESULT": 1.83}
{"MUTANT LABEL": "CGCAAC", "NUMERIC RESULT": 1.78}
{"MUTANT LABEL": "UCGCGA", "NUMERIC RESULT": 1.8}
{"MUTANT LABEL": "GUCGGC", "NUMERIC RESULT": 1.83}
{"MUTANT LABEL": "CGCAGU", "NUMERIC RESULT": 1.82}
{"MUTANT LABEL": "CCUUAG", "NUMERIC RESULT": 1.83}
{"MUTANT LABEL": "AACAUU", "NUMERIC RESULT": 1.84}
{"MUTANT LABEL": "GCGGGU", "NUMERIC RESULT": 1.87}
{"MUTANT LABEL": "GGGAAA", "NUMERIC RESULT": 1.54}
{"MUTANT LABEL": "CGUUUC", "NUMERIC RESULT": 1.78}
{"MUTANT LABEL": "UCCGAC", "NUMERIC RESULT": 1.79}
{"MUTANT LABEL": "UAUGCC", "NUMERIC RESULT": 1.91}
{"MUTANT LABEL": "GGGGCA", "NUMERIC RESULT": 1.88}

From: the supplement of paper PMC6757056
